Cited source for all entries: the supplement of paper PMC8728848

- SYSTEM_NAME: Neu5Ac(a2-3)Gal(b1-4)GlcNAc(b1-2)Man(a1-3)[Neu5Ac(a2-3)Gal(b1-4)GlcNAc(b1-2)Man(a1-6)]Man(b1-4)GlcNAc(b1-4)[Fuc(a1-6)]GlcNAc
- MEASUREMENT_DESCRIPTION: glycan array binding signal (z-score within array); higher = stronger binding
- CONDITION_PARAMETERS: glycan notation: IUPAC condensed, linker removed
The entries come from a sample that favours the strongest signals as a whole.
MEASUREMENT_NAME: glycan array binding signal (z-score)
One number for each entry.

>>> meas_value("HBHA-Rv (Mycobacterium tuberculosum), P0A5P6 (protein) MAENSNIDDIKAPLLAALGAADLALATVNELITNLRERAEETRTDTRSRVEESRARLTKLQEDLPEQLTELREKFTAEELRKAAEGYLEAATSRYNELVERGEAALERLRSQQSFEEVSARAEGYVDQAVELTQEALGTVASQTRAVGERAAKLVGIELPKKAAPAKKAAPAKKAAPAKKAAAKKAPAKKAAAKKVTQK")
-0.174

Would you be so kind as to report glycan array binding signal (z-score) for each listed record?
1. Vd2LysM (Verticillium dahliae) (protein) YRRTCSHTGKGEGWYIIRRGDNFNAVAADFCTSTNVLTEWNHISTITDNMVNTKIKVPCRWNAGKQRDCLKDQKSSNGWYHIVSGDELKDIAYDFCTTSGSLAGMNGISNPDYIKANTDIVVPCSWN
2. RBMC1 (Vibrio cholerae) (protein) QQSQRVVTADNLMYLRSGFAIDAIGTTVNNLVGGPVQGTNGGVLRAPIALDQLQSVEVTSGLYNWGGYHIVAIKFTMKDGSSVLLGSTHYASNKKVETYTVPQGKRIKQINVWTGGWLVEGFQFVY

*A*
1.14
3.39
